Tested on: CP66
procedure.text: Colony growth assay, CP66
Format: cell-based
condition.description: Homo sapiens, CP66, RAS Q61K
readout.name: IC50

Guide cases for IC50, answers given:
[[record]]
molecule = "CC(C)(C)c1nc(-c2cccc(NS(=O)(=O)c3c(F)cccc3F)c2F)c(-c2ccnc(N)n2)s1 [Dabrafenib]"
result = "1000 nM"

[[record]]
molecule = "CCCS(=O)(=O)Nc1ccc(F)c(C(=O)c2c[nH]c3ncc(-c4ccc(Cl)cc4)cc23)c1F [Vemurafenib]"
result = "> 6600 nM"

[[record]]
molecule = "O=C(c1c(F)ccc(NS(=O)(=O)N2CC[C@@H](F)C2)c1F)c1c[nH]c2ncc(-c3cnc(C4CC4)nc3)cc12 [PLX8394]"
result = "> 1000 nM"


Enquiry: Fill: IC50 (CP66) for this molecule COC(=O)N[C@@H](C)CNc1nccc(-c2cn(C(C)C)nc2-c2cc(Cl)cc(NS(C)(=O)=O)c2F)n1 [Encorafenib]
Return: 520 nM
